Measured protein stability index, listed per entry.
B1: DVL3 (parent)
chain: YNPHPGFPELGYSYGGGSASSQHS

Variants of: B1
Assay: protein stability index of a GFP-peptide fusion (GPS, HEK-293T) (PSI 1-6); higher = more stable;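 also: lentivirally expressed fusions sorted by FACS into six bins by GFP to DsRed ratio, PSI derived from sequencing read proportions per bin multiplied by bin number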
Settings: c terminus: a fixed tail appended

>  <ordered residues>
YRPHPGFPELGYSYGGGSASSQHS [N2R]

>  <protein stability index>
3.09

$$$$
>  <ordered residues>
YNPHPGFPELMYSYGGGSASSQHS [G11M]

>  <protein stability index>
3.03

$$$$
>  <ordered residues>
YNHHPGFPELGYSYGGGSASSQHS [P3H]

>  <protein stability index>
2.95

$$$$
>  <ordered residues>
YNPHPGFPEKGYSYGGGSASSQHS [L10K]

>  <protein stability index>
3.05

$$$$
